Counter-ions that a name gives are not always drawn.
property_name: melting point

1. Cn1c(C(=O)NC(=N)N)cc2c(C(F)(F)F)ccc(OS(=O)(=O)O)c21 (as salt: sulfate) = 298 °C (dec.)
2. Cn1c(C(=O)NC(=N)N)cc2cccc(OS(=O)(=O)O)c21 (as salt: sulfate) = 279 to 280 °C (dec.)
3. Br.Cn1c(C(=O)NC(=N)N)cc2c(C(F)(F)F)ccc(CCP(=O)(O)O)c21 = 234 °C (dec.)
4. Cn1c(C(=O)NC(=N)N)cc2c(Cl)ccc(OCC(=O)O)c21 = 210 to 225 °C (dec.)
5. Cn1c(C(=O)NC(=N)N)cc2c(C(F)(F)F)cc(CCP(=O)(O)O)cc21 = 277 °C (dec.)
6. Cn1c(C(=O)NC(=N)N)cc2c(C(F)(F)F)ccc(OCCCS(=O)(=O)O)c21 = ≥ 272 °C (dec.)
7. Cn1c(C(=O)NC(=N)N)cc2c(Cl)ccc(OS(=O)(=O)O)c21 (as salt: sulfate) = 338 °C (dec.)

* * *

- measured_on: Na^+/H^+ exchange transport system (Rattus norvegicus, UniProt P26431)
- Construct: a pH change in isolated ventricular myocytes (rat) under an acidic load; endogenous in cells
- Sequence (P26431 whole entry): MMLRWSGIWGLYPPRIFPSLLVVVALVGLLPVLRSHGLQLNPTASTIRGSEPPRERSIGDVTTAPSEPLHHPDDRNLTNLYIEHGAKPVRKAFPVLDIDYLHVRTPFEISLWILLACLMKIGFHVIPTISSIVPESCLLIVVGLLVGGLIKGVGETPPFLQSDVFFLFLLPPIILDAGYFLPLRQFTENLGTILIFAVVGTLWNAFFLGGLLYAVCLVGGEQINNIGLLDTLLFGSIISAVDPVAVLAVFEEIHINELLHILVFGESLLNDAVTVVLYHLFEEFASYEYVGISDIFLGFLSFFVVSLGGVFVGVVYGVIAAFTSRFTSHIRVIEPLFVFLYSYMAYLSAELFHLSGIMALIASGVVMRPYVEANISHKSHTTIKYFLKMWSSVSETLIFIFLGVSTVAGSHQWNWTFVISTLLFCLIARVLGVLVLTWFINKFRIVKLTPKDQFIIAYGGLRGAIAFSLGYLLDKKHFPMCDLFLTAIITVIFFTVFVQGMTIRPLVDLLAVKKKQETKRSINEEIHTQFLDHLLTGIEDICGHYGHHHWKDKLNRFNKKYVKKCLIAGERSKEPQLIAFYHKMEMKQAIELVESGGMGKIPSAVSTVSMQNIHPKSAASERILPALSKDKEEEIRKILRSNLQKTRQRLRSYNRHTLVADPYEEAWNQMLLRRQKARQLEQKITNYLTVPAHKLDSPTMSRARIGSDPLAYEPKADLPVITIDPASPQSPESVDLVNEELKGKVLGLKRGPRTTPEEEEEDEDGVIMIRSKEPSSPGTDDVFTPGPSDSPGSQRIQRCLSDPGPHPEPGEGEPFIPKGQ
- measurement_notes: Inhibitory effect on the Na^+/H^+ exchange transport system (in vitro), pH change in isolated ventricular myocytes under an acidic load
pIC50: −log10 of the molar value.
property_name: pIC50

1. Cc1ccc(OS(=O)(=O)O)c2c1cc(C(=O)NC(=N)N)n2C [Example 4] = 6.70
2. Cc1cc(OS(=O)(=O)O)cc2c1cc(C(=O)NC(=N)N)n2C [Example 2] = 7.15
3. Cc1c(OS(=O)(=O)O)ccc2c1cc(C(=O)NC(=N)N)n2C [Example 1] = 5.00

* * *

Measured melting point of individual entries
Structures can show the parent of a compound that is named as a salt.
property_name: melting point

1. Cn1c(C(=O)NC(=N)N)cc2c(C(F)(F)F)cc(CS(=O)(=O)O)cc21 = ≥ 300 °C
2. CS(=O)(=O)O.Cn1c(C(=O)NC(=N)N)cc2cc(O[C@@H]3O[C@H](C(=O)O)[C@@H](O)[C@H](O)[C@H]3O)ccc21 = 219 °C (dec.)
3. Cn1c(C(=O)NC(=N)N)cc2c(Cl)cc(CCS(=O)(=O)O)cc21 = ≥ 300 °C
4. Cc1cc(OCP(=O)(O)O)cc2c1cc(C(=O)NC(=N)N)n2C = ≥ 300 °C
5. Cc1cc(OS(=O)(=O)O)cc2c1cc(C(=O)NC(=N)N)n2C (as salt: sulfate) = 303 to 304 °C (dec.)
6. Cc1cc(CCP(=O)(O)O)cc2c1cc(C(=O)NC(=N)N)n2C = 255 °C (dec.)
7. Cc1c(OS(=O)(=O)O)ccc2c1cc(C(=O)NC(=N)N)n2C (as salt: sulfate) = 267 to 268 °C (dec.)
8. Cc1ccc(OCP(=O)(O)O)c2c1cc(C(=O)NC(=N)N)n2C = 270 °C (dec.)
9. Cn1c(C(=O)NC(=N)N)cc2c(Cl)ccc(OCP(=O)(O)O)c21 = 247 °C
10. Cc1ccc(OCCCS(=O)(=O)O)c2c1cc(C(=O)NC(=N)N)n2C = ≥ 278 °C (dec.)
11. Cn1c(C(=O)NC(=N)N)cc2c(C(F)(F)F)cc(OS(=O)(=O)O)cc21 (as salt: sulfate) = 300 °C (dec.)
12. Cc1cc(CCS(=O)(=O)O)cc2c1cc(C(=O)NC(=N)N)n2C = ≥ 300 °C (dec.)
13. Cc1cccc2c1cc(C(=O)NC(=N)N)n2CCCS(=O)(=O)O = 298 °C (dec.)
14. Cn1c(C(=O)NC(=N)N)cc2c(C(F)(F)F)ccc(OCP(=O)(O)O)c21 = 260 °C (dec.)
15. Cn1c(C(=O)NC(=N)N)cc2c(C(F)(F)F)ccc(CP(=O)(O)O)c21 = 249 to 265 °C (dec.)
16. N=C(N)NC(=O)c1cc2c(C(F)(F)F)cccc2n1CCCS(=O)(=O)O = > 300 °C
17. Cn1c(C(=O)NC(=N)N)cc2c(C(F)(F)F)cc(CP(=O)(O)O)cc21 = 231 to 266 °C (dec.)

* * *

Where a name gives a salt, the structure may show the parent alone.
property_name: melting point

1) Cn1c(C(=O)NC(=N)N)cc2c(Cl)cc(OCP(=O)(O)O)cc21 = 263 °C (dec.)
2) Cn1c(C(=O)NC(=N)N)cc2c(C(F)(F)F)ccc(OCCS(=O)(=O)O)c21 = 275 °C (dec.)
3) Cn1c(C(=O)NC(=N)N)cc2c(Cl)cc(OCC(=O)O)cc21 = 257 to 260 °C (dec.)
4) Cn1c(C(=O)NC(=N)N)cc2c(C(F)(F)F)ccc(OCC(=O)O)c21 = 224 to 233 °C (dec.)
5) Cn1c(C(=O)NC(=N)N)cc2c(Cl)cc(OCCCS(=O)(=O)O)cc21 = 325 °C (dec.)
6) Cc1ccc(CP(=O)(O)O)c2c1cc(C(=O)NC(=N)N)n2C = 239 to 280 °C (dec.)
7) Cn1c(C(=O)NC(=N)N)cc2c(OS(=O)(=O)O)cccc21 (as salt: sulfate) = 249 to 250 °C (dec.)
8) Cc1cc(OCC(=O)O)cc2c1cc(C(=O)NC(=N)N)n2C = 260 to 270 °C (dec.)
9) Cn1c(C(=O)NC(=N)N)cc2c(Cl)cc(OS(=O)(=O)O)cc21 (as salt: sulfate) = 298 °C (dec.)
10) Cn1c(C(=O)NC(=N)N)cc2c(C(F)(F)F)cc(OCC(=O)O)cc21 = 250 to 266 °C (dec.)
11) CS(=O)(=O)O.Cn1c(C(=O)NC(=N)N)cc2c(C(F)(F)F)cc(P(=O)(O)O)cc21 = 286 °C (dec.)
12) Cc1ccc(OCC(=O)O)c2c1cc(C(=O)NC(=N)N)n2C = 248 to 252 °C (dec.)
13) Cn1c(C(=O)NC(=N)N)cc2c(Cl)cc(CP(=O)(O)O)cc21 = 265 to 282 °C (dec.)
14) Cn1c(C(=O)NC(=N)N)cc2c(C(F)(F)F)cc(OCP(=O)(O)O)cc21 = 292 °C (dec.)
15) Cc1ccc(OS(=O)(=O)O)c2c1cc(C(=O)NC(=N)N)n2C (as salt: sulfate) = > 315 °C (dec.)
16) Cn1c(C(=O)NC(=N)N)cc2c(C(F)(F)F)ccc(CS(=O)(=O)O)c21 = ≥ 300 °C
17) Cn1c(C(=O)NC(=N)N)cc2c(C(F)(F)F)ccc(CCS(=O)(=O)O)c21 = ≥ 300 °C
18) N=C(N)NC(=O)c1cc2c(Cl)cccc2n1CCCS(=O)(=O)O = 281 °C (dec.)

* * *

Where a name gives a salt, the structure may show the parent alone.
Measured melting point of individual entries
property_name: melting point

1. CS(=O)(=O)O.Cn1c(C(=O)NC(=N)N)cc2c(C(F)(F)F)ccc(P(=O)(O)O)c21 = 258 °C (dec.)
2. Cc1cc(OCCCS(=O)(=O)O)cc2c1cc(C(=O)NC(=N)N)n2C [Example 35] = 290 °C (dec.)
3. Cn1c(C(=O)NC(=N)N)cc2ccc(OS(=O)(=O)O)cc21 (as salt: sulfate) [Example 7] = 283 to 284 °C (dec.)
4. CS(=O)(=O)O.Cn1c(C(=O)NC(=N)N)cc2ccc(O[C@@H]3O[C@H](C(=O)O)[C@@H](O)[C@H](O)[C@H]3O)cc21 [Example 8] = 170 to 171 °C
5. Cn1c(C(=O)NC(=N)N)cc2c(C(F)(F)F)cc(CCS(=O)(=O)O)cc21 [Example 39] = ≥ 300 °C
6. Cn1c(C(=O)NC(=N)N)cc2c(Cl)ccc(CCP(=O)(O)O)c21 [Example 53] = 256 °C (dec.)
7. Cn1c(C(=O)NC(=N)N)cc2c(Cl)ccc(CP(=O)(O)O)c21 [Example 18] = 273 to 284 °C (dec.)
8. Cn1c(C(=O)NC(=N)N)cc2cc(OS(=O)(=O)O)ccc21 (as salt: sulfate) [Example 6] = 280 to 281 °C (dec.)
